protocol.summary: In vivo pharmacokinetics after intravenous administration to rats
details: rat; 5 mg/kg intravenous bolus injection, male Sprague-Dawley rats, plasma
Positions of bridges follow the written chain, without caps; N, C: chain ends. Non-standard residues stand in square brackets, D forms with d. Residues, ends and D or L forms follow the SMILES beside them.
A collection of compounds and their measured Vd
The answer is to be given in L/kg; state only the numeric part.

| compound | measurement.kind | obs.value |
| --- | --- | --- |
| C[C@H](O)[C@@H](N)C(=O)N[C@H](CCCCN)C(=O)N[C@H](CCC(=O)O)C(=O)N[C@H](C)C(=O)N[C@@H]1CSSC[C@H](C(=O)N[C@H](CCC(=O)O)C(=O)N[C@H](CCC(=O)O)C(=O)NCC(=O)O)NC(=O)[C@@H](CCCNC(=N)N)NC(=O)[C@@H](C)NC1=O | Vd | 0.16 |
| C[C@H](O)[C@@H](NC(=O)[C@H]1CSSC[C@@H](NC(=O)[C@@H](C)NC(=O)[C@@H](CCC(=O)O)NC(=O)[C@@H](CCCCN)NC(=O)[C@H](N)CO)C(=O)NCC(=O)NCC(=O)N[C@H](CCCCN)C(=O)N1)C(=O)N[C@H](CCC(=O)O)C(=O)NCC(=O)O [Compound 12, SKEACGGKCTEG] (H-[dS][dK][dE][dA][dC]GG[dK][dC][dT][dE]G-OH; disulfide 5-9; N-terminus and C-terminus assumed) | Vd | 0.45 |
| C[C@H](O)[C@@H](NC(=O)[C@H]1CSSC[C@@H](NC(=O)[C@@H](C)NC(=O)[C@H](N)CCC(=O)O)C(=O)NCC(=O)N[C@H](CCCCN)C(=O)N1)C(=O)N[C@H](CCC(=O)O)C(=O)O | Vd | 0.11 |

We next turn to a different compound, shown below.
Lab note: measured Vd of C[C@@H](NC(=O)[C@@H](CCC(=O)O)NC(=O)[C@H](N)CCCCN)C(=O)N[C@@H]1CSSC[C@H](C(=O)N[C@H](CCC(=O)O)C(=O)N[C@H](CCC(=O)O)C(=O)O)NC(=O)[C@@H](CCCNC(=N)N)NC(=O)[C@@H](C)NC1=O [Compound 14, KEACARCEE] (H-[dK][dE][dA][dC][dA][dR][dC][dE][dE]-OH; disulfide 4-7; N-terminus and C-terminus assumed) was 0.21
